Target: Factor X, P00742
Sequence (P00742 whole entry, looked up): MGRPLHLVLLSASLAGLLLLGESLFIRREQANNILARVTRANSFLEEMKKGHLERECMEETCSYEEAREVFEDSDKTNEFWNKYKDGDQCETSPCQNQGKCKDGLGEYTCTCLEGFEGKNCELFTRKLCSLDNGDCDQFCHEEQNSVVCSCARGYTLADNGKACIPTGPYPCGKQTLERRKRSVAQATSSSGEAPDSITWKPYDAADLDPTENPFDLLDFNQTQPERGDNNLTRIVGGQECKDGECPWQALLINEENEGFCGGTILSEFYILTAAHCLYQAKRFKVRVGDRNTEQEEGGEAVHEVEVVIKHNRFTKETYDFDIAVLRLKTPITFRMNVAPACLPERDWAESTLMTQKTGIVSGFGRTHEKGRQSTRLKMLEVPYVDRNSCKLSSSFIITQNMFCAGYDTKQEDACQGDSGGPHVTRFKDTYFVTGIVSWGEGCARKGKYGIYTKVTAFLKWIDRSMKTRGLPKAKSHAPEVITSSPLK
PROPERTY: % of WT kcat/KM (%)
All answers are understood in %, so give the number only.

[
  {
    "PROTEIN": "FIXa-Y155F/K247N/N249S/R338E/R403E/E410N (protein) chain 1: YNSGKLEEFVQGNLERECMEEKCSFEEAREVFENTERTTEFWKQYVDGDQCESNPCLNGGSCKDDINSYECWCPFGFEGKNCELDVTCNIKNGRCEQFCKNSADNKVVCSCTEGYRLAENQKSCEPAVPFPCGRVSVSQTSKLTR chain 2: VVGGEDAKPGQFPWQVVLNGKVDAFCGGSIVNEKWIVTAAHCVETGVKITVVAGEHNIEETEHTEQNRSVIRIIPHHNYNAAINKYNHDIALLELDEPLVLNSYVTPICIADKEYTNIFLKFGSGYVSGWGRVFHKGRSALVLQYLRVPLVDRATCLESTKFTIYNNMFCAGFHEGGRDSCQGDSGGPHVTEVEGTSFLTGIISWGEECAMKGKYGIYTKVSEYVNWIKNKTKLT",
    "% of WT kcat/KM [%]": 229
  }
]

Next, consider the following protein.
Inquiry: # return recorded % of WT kcat/KM for input FIXa-Y155F/K247N/N249S/R318Y/R338E/T343R/R403E (protein) chain 1: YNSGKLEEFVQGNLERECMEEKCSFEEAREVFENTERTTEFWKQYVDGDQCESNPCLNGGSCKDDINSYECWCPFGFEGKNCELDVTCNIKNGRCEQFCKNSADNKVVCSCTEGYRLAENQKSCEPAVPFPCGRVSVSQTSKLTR chain 2: VVGGEDAKPGQFPWQVVLNGKVDAFCGGSIVNEKWIVTAAHCVETGVKITVVAGEHNIEETEHTEQNRSVIRIIPHHNYNAAINKYNHDIALLELDEPLVLNSYVTPICIADKEYTNIFLKFGSGYVSGWGRVFHKGYSALVLQYLRVPLVDRATCLESTKFRIYNNMFCAGFHEGGRDSCQGDSGGPHVTEVEGTSFLTGIISWGEECAMKGKYGIYTKVSEYVNWIKEKTKLT
Reply text: 630

Values were extracted from patent US20210238260.
